FYI, the data here is from patent US20220112288A1.

# subject.of.test: T1, Recombinant human CD4 (R&D Systems, Cat. 10327-CD) (human, UniProt P01730 26-390, limits assumed)
# T1 construct: Bought soluble recombinant protein used as analyte at 100 nM; also called huCD4
# protocol.description: BLI (Octet Red384), non-clonal supernatant on AMC sensor, 100 nM human CD4, 1:1 local fit;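 further: hybridoma antibodies captured from supernatant, single CD4 concentration as analyte, association and dissociation phases fitted together, giving single-point kinetic estimates per supernatant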
pKd: −log10 of the molar value.
Measured pKd values are reported for all entries that follow.

Worked examples, 2 binders total:
binder	result.value
75110_10O16A (antibody, V domains shown, Non-clonal AlivaMab Mouse Kappa hybridoma supernatant, captured by anti-mouse IgG Fc (human V regions, mouse Fc); also called 75110_10016A) VH: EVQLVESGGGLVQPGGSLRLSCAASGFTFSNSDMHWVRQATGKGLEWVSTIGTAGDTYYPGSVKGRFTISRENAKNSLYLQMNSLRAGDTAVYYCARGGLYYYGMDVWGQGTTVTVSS VL: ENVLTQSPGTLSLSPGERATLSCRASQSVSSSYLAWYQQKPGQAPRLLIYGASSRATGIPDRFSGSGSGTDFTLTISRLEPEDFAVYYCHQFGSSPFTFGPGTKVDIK	> 12.00
75110_03I08A (antibody, V domains shown, Non-clonal AlivaMab Mouse Kappa hybridoma supernatant, captured by anti-mouse IgG Fc (human V regions, mouse Fc)) VH: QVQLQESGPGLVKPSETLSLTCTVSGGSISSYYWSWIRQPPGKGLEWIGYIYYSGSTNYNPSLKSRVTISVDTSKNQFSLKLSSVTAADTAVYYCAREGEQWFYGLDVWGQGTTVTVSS VL: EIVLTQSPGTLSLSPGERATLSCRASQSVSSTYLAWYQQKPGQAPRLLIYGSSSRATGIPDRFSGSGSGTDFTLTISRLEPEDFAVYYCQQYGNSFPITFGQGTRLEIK	> 12.00

Field: next binder
Give the measured pKd of 75110_07J24A (antibody, V domains shown, Non-clonal AlivaMab Mouse Kappa hybridoma supernatant, captured by anti-mouse IgG Fc (human V regions, mouse Fc)) VH: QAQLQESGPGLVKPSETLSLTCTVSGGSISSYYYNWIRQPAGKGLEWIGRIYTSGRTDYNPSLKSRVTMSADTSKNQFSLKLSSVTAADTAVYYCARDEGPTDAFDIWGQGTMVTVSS VL: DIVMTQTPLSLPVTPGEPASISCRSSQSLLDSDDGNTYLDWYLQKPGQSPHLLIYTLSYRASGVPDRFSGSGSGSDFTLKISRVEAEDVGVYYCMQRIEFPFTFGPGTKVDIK .
> 12.00
